# TARGET SYSTEM: Sigma non-opioid intracellular receptor 1 (Rattus norvegicus)
# Sequence (Q9R0C9 whole entry): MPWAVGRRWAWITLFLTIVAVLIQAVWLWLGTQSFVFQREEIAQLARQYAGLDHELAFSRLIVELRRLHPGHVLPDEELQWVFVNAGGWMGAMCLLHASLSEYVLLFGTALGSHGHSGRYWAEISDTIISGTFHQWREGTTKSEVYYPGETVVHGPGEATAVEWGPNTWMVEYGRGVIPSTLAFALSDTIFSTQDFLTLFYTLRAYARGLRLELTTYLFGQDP
# ASSAY OVERVIEW: Tested for in vitro inhibition of the displacement of (+)-[3H]pentazocine from sigma opioid receptor
MEASUREMENT LABEL: pKi
Remember the convention: pKi equals -log10 of concentration in molar.

input: Param item = C[C@]12N[C@H](Cc3ccc(N=C=S)cc31)c1ccccc12 (stereo in doubt; (+)-8a) ; retrieve measured pKi.
output: 5.32

====

# TARGET SYSTEM: Glutamate NMDA receptor
# ASSAY OVERVIEW: Tested for the inhibition of [3H]dizocilpine binding to N-methyl-D-aspartate (NMDA) receptor-coupled phencyclidine binding site
# Format: protein-complex assay
MEASUREMENT LABEL: Ki

Example results:
[[record]]
molecule = "C[C@]12N[C@H](Cc3cc(N=C=S)ccc31)c1ccccc12"
target_system = "Glutamate NMDA receptor"
measurement_label = "Ki"
recorded_result = "843 nM"

[[record]]
molecule = "C[C@]12N[C@H](Cc3ccc(N=C=S)cc31)c1ccccc12 (stereo in doubt; (-)-8a)"
target_system = "Glutamate NMDA receptor"
measurement_label = "Ki"
recorded_result = "838 nM"

[[record]]
molecule = "CC[C@]1(c2cccc(N=C=S)c2)OC[C@H]([C@@H]2CCCCN2)O1"
target_system = "Glutamate NMDA receptor"
measurement_label = "Ki"
recorded_result = "94 nM"

[[record]]
molecule = "S=C=Nc1cccc(C2(N3CCCCC3)CCCCC2)c1"
target_system = "Glutamate NMDA receptor"
measurement_label = "Ki"
recorded_result = "535 nM"


Field: next molecule
input: Param item = C[C@]12N[C@H](Cc3ccc(N=C=S)cc31)c1ccccc12 (stereo in doubt; (+)-8a) ; retrieve measured Ki.
output: 37 nM

====

# TARGET SYSTEM: Glutamate NMDA receptor
# ASSAY OVERVIEW: Tested for in vitro inhibition of the displacement of [3H]1-[1-(2-thieny])cyclohexyl] peridine from NMDA receptor
# Type: protein-complex assay
MEASUREMENT LABEL: pKi
Remember the convention: pKi equals -log10 of concentration in molar.

input: Param item = C[C@]12N[C@H](Cc3ccc(N=C=S)cc31)c1ccccc12 (stereo in doubt; (+)-8a) ; retrieve measured pKi.
output: 6.88

Data provenance: ChEMBL document CHEMBL1127070
